# system name: Histone deacetylase
# assay name: In vitro inhibitory concentration against Histone deacetylase; Control value 0.06 uM
# Assay type: protein assay, Homo sapiens
Just a reminder that ties go to Not fulfilled: only IC50 strictly below 3 µM counts as Fulfilled.

Consider the following illustrative entries.
structure notation	class label
O=C(CCCCCC(=O)Nc1ccccc1)NCCS	Fulfilled
O=C(CCCCCC[N-]CC[S-])Nc1ccccc1.[Zn+2]	Not fulfilled
O=C(CS)NCCCCCC(=O)Nc1cnc2ccccc2c1	Fulfilled
O=C(CS)NCCCCC(=O)Nc1cnc2ccccc2c1	Fulfilled

Is 3 µM strictly greater than the compound's reported IC50? compound: O=C(CC(=O)Nc1ccccc1)NCCS
Not fulfilled

Here's an entry: O=C(CCC(=O)Nc1ccccc1)NCCS . Is its IC50 below 3 µM?
Not fulfilled
